Documented pH=1, t½, h across a set of compounds
# test.protocol: Chemical stability (hydrolysis) of acyclovir esters in aqueous buffer, unchanged ester quantified by HPLC
# Format: physicochemical
# measurement.parameters: pH 1.0 (0.1 M HCl), 37°C, decomposition half-life

compound: CC(C)CC(NC(=O)OC(C)(C)C)c1nc(C(=O)OCCOCn2cnc3c(=O)[nH]c(N)nc32)cs1 (stereo not shown)
pH=1, t½, h: 2.6±0.2 h
//
compound: CC(C)C(NC(=O)OC(C)(C)C)c1nc(C(=O)OCCOCn2cnc3c(=O)[nH]c(N)nc32)cs1 (stereo not shown)
pH=1, t½, h: 0.7±0.1 h
//
compound: CC(NC(=O)OC(C)(C)C)c1nc(C(=O)OCCOCn2cnc3c(=O)[nH]c(N)nc32)cs1 (stereo not shown)
pH=1, t½, h: 1.3±0.1 h
//
compound: CC(C)(C)OC(=O)NCc1nc(C(=O)OCCOCn2cnc3c(=O)[nH]c(N)nc32)cs1
pH=1, t½, h: 1.1±0.1 h

* * *

# test.protocol: Chemical stability (hydrolysis) of acyclovir esters in aqueous buffer, unchanged ester quantified by HPLC
# Type: physicochemical
# measurement.parameters: pH 1.0, 37°C, acidic conditions

compound: CC(NC(=O)OC(C)(C)C)c1nc(C(=O)OCCOCn2cnc3c(=O)[nH]c(N)nc32)cs1 (stereo not shown)
chemical stability at pH 1 (in words): rather unstable
--
compound: CC(C)(C)OC(=O)NCc1nc(C(=O)OCCOCn2cnc3c(=O)[nH]c(N)nc32)cs1
chemical stability at pH 1 (in words): less stable
--
compound: CC(C)C(NC(=O)OC(C)(C)C)c1nc(C(=O)OCCOCn2cnc3c(=O)[nH]c(N)nc32)cs1 (stereo not shown)
chemical stability at pH 1 (in words): less stable
--
compound: CC(C)CC(NC(=O)OC(C)(C)C)c1nc(C(=O)OCCOCn2cnc3c(=O)[nH]c(N)nc32)cs1 (stereo not shown)
chemical stability at pH 1 (in words): rather unstable
